# Test system: OCI-AML2
# ASSAY_COMMENT: cell viability relative to vehicle control; higher = less cytotoxic;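 further: after 48 h exposure read by CellTiter-Glo luminescence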
# ASSAY_CONDITIONS: 10 µM; SRSF2 genotype: wt/wt
Where a name gives a salt, the structure may show the parent alone.
Assignment: determine reported cell viability for the given molecules.
Entry rule: numbers only, all in %.

Hi! What's the reported cell viability for CC1(C)[C@@H](OC(=O)CCC(=O)O)CC[C@]2(C)[C@H]3C(=O)C=C4[C@@H]5C[C@@](C)(C(=O)O)CC[C@]5(C)CC[C@@]4(C)[C@]3(C)CC[C@@H]12 [Carbenoxolone disodiuM] on OCI-AML2?
103

Would you kindly repeat that for "COc1cc2c(=O)c3c(O)c([C@@H]4O[C@H](CO[C@@H]5OC[C@](O)(CO)[C@H]5O)[C@@H](O)[C@H](O)[C@H]4O)c(O)cc3oc2cc1O" ?
97.3

Would you kindly repeat that for COC(=O)C1=COC(OC2OC(CO)C(O)C(O)C2O)C2C(C)CC(=O)C12O (stereo unspecified) [Hastatoside] ?
102

Would you kindly repeat that for Nc1ncnc2c1ncn2C1CC(O)C(CO)O1 (stereo unspecified) [2'-Deoxyadenosine monohydrate] ?
96.5

Would you kindly repeat that for C[C@@H]1O[C@@H](O[C@@H]2[C@@H](O)[C@H](OCCc3ccc(O)c(O)c3)O[C@H](COC(=O)/C=C/c3ccc(O)c(O)c3)[C@H]2O)[C@H](O)[C@H](O)[C@H]1O [Isoacteoside] ?
106

Would you kindly repeat that for CNC(=O)c1cc(Oc2ccc(NC(=O)Nc3ccc(Cl)c(C(F)(F)F)c3)cc2)ccn1 [Sorafenib Tosylate] ?
11.3

* * *

Assignment: determine reported cell viability for the given molecules.
# System: MOLM14
# ASSAY_COMMENT: cell viability relative to vehicle control; higher = less cytotoxic
# ASSAY_CONDITIONS: 10 µM; SRSF2 genotype: SRSF2 P95H/wt
Where a name gives a salt, the structure may show the parent alone.
Entry rule: numbers only, all in %.

Hi! What's the reported cell viability for "O=C(Nc1ncc(SCCN2CCCC2)s1)[C@]1(c2ccc(S(=O)(=O)C3CC3)cc2)C[C@H]1C1CCCCC1" on MOLM14?
0.59

Would you kindly repeat that for "CS(=O)(=O)c1cccc(CNc2nc(Nc3ccc4c(c3)CCC(=O)N4)ncc2C(F)(F)F)c1" ?
8.16

Would you kindly repeat that for "COc1cc(O)c2c(c1)C(=O)c1cc(C)cc(O)c1C2=O" ?
102

Would you kindly repeat that for "O=C(Nc1ccc2c(O)cc(S(=O)(=O)O)cc2c1)Nc1ccc2c(O)cc(S(=O)(=O)O)cc2c1" ?
101

Would you kindly repeat that for CO[C@H]1/C=C\C=C(/C)C(=O)NC2=CC(=O)C(NCCN(C)C)=C(C[C@@H](C)C[C@H](OC)[C@H](O)[C@@H](C)/C=C(\C)[C@@H]1OC(N)=O)C2=O [17-DMAG HCl (Alvespimycin)] ?
0.45

Would you kindly repeat that for "NC(=O)c1ncn([C@@H]2O[C@H](CO)[C@@H](O)[C@H]2O)c1N" ?
107

Would you kindly repeat that for "CC=C1C(=O)C[C@H]2[C@@H]3CCC4=CC(=O)CC[C@]4(C)[C@H]3CC[C@]12C" ?
80.4

* * *

# Test system: K562
# ASSAY_COMMENT: cell viability relative to vehicle control; higher = less cytotoxic
# ASSAY_CONDITIONS: 10 µM; SRSF2 genotype: SRSF2 wt/wt
Counter-ions that a name gives are not always drawn.
OBSERVABLE: cell viability

Data request, read-out cell viability, for CC1CCC2(OC1)OC1CC3C4CCC5CC(OC6OC(CO)C(O)C(O)C6OC6OC(CO)C(O)C(O)C6O)CCC5(C)C4CCC3(C)C1C2C (stereo not drawn)
28.3%

Would you kindly repeat that for "COC(=O)C1=CO[C@@H](O)[C@@H]2C(CO)=CC[C@H]12" ?
95.1%

Would you kindly repeat that for "COc1ccc(-c2nc(N3CCOCC3)c3sc(CN(C)c4ncc(C(=O)NO)cn4)cc3n2)cn1" ?
2.68%

Would you kindly repeat that for CS(=O)(=O)Nc1ccc([N+](=O)[O-])cc1Oc1ccccc1 [Nimesulide] ?
99.8%

Would you kindly repeat that for CC(C)=CCCC(C)(O)C1CCC2(C)C1C(O)CC1C3(C)CCC(O)C(C)(C)C3C(OC3OC(CO)C(O)C(O)C3OC3OC(C)C(O)C(O)C3O)CC12C [(20S)Ginsenoside Rg2] ?
98.7%

Would you kindly repeat that for CC(C)(C)NC[C@H](O)COc1nsnc1N1CCOCC1 [Timolol Maleate] ?
97.4%

Would you kindly repeat that for "C=C(C)[C@@H]1CC[C@]2(C(=O)O)CC[C@]3(C)[C@H](CC[C@@H]4[C@@]5(C)CC[C@H](OC(=O)CC(C)(C)C(=O)O)C(C)(C)[C@@H]5CC[C@]43C)[C@@H]12" ?
99.7%

Would you kindly repeat that for "COc1ccc(CC(=O)O)cc1OC" ?
85.9%
